// provenance: patent US20230295200A1

Provide the reported Ki of each item.
Molecular target: STAT6 protein (Homo sapiens, UniProt P42226)
Sequence (P42226 whole entry): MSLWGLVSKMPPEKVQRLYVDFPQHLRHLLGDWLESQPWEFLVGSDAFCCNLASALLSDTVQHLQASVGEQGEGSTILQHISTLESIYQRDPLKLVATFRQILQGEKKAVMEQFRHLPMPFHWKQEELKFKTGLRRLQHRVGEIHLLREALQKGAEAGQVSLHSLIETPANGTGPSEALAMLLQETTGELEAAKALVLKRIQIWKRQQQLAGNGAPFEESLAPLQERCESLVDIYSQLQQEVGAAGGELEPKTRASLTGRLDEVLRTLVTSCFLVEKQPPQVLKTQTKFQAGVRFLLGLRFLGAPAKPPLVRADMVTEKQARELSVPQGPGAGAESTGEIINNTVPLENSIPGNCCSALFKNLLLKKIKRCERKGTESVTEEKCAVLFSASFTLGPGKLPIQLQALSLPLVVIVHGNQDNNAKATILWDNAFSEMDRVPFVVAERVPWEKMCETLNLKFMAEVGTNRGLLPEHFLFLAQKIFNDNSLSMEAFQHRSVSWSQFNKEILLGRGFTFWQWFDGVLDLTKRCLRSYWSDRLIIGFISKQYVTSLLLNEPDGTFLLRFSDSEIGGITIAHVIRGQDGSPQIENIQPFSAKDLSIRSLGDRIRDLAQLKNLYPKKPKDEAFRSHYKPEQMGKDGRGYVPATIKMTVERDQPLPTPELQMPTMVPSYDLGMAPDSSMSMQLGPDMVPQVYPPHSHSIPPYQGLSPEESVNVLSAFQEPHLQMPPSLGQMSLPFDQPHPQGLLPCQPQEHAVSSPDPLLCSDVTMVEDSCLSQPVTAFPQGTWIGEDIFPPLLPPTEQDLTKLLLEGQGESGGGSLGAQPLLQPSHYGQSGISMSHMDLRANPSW
Experiment: Fluorescence polarization (FP) binding assay, STAT6
Conditions: FP competition, 5 nM fluorescein-labeled tracer, 200 nM protein, PBS pH7.4; read-out: Binding STAT6

Form field Ki for item CC(C)(C)[C@H](NC(=O)c1ccc2cc(C(F)(F)P(=O)(O)O)ccc2c1)C(=O)N1CCC[C@H]1C(=O)N1CCO[C@@H](c2ccccc2)C1 [Compound 151] on STAT6 protein (Homo sapiens, UniProt P42226): 1000 to 10000 nM

Summary line: CCOC(=O)CO[C@H]1C[C@@H](C(=O)Nc2ncc(-c3ccccc3)s2)N(C(=O)[C@@H](NC(=O)c2cc3cc(C(F)(F)P(=O)(O)O)ccc3s2)C(C)(C)C)C1 [Compound 205] , STAT6 protein (Homo sapiens, UniProt P42226), reported Ki = 1000 to 10000 nM

STAT6 protein (Homo sapiens, UniProt P42226) data for O=C(NC(C(=O)N1CCC[C@H]1C(=O)N1CCc2ccccc2C1)C1CCNCC1)c1cc2cc(C(F)(F)P(=O)(O)O)ccc2[nH]1 (some centres unmarked) [Compound 28] ; its Ki: > 10000 nM

Entry CC(C)(C)[C@H](NC(=O)c1cc2cc(C(F)(F)P(=O)(O)O)ccc2s1)C(=O)N1Cc2ccccc2C[C@H]1C(=O)N1CCOC(Cc2ccccc2)C1 (some centres unmarked) [Compound 221] ; assay system STAT6 protein (Homo sapiens, UniProt P42226); Ki recorded at 100 to 1000 nM

Reported Ki (STAT6 protein (Homo sapiens, UniProt P42226)) for entry CC(=O)N1CC[C@H]2CC[C@@H](C(=O)N3CCOc4ccccc43)N2C(=O)[C@@H](NC(=O)c2cc3cc(C(F)(F)P(=O)(O)O)ccc3[nH]2)C1 [Compound 372] is > 10000 nM

Readout Ki for CNC(=O)CCN(C(=O)[C@@H]1C[C@@H](OCC(=O)NC)CN1C(=O)[C@@H](NC(=O)c1cc2cc(C(F)(F)P(=O)(O)O)ccc2s1)C(C)(C)C)c1ccc(Br)cc1 [Compound 52] , test system STAT6 protein (Homo sapiens, UniProt P42226), was 100 to 1000 nM

// returns Ki for CN(Cc1ccc(Cl)cc1)C(=O)[C@@H]1CCCN1C(=O)[C@@H](NC(=O)c1cc2cc(C(F)(F)P(=O)(O)O)ccc2s1)C(C)(C)C [Compound 73] with STAT6 protein (Homo sapiens, UniProt P42226); value = 1000 to 10000 nM

The compound CC(C)(C)[C@H](NC(=O)c1cc2cc(C(F)(F)P(=O)(O)O)ccc2s1)C(=O)N1CCC[C@H]1C(=O)N1CCOC(c2cc(F)c(Cl)cc2Cl)C1 (some centres unmarked) [Compound 104] , tested on STAT6 protein (Homo sapiens, UniProt P42226), showed Ki of 1000 to 10000 nM

Tested on STAT6 protein (Homo sapiens, UniProt P42226), the item CC(=O)N1CC[C@H]2CC[C@@H](C(=O)N3CCS(=O)(=O)C(c4ccccc4)C3)N2C(=O)[C@@H](NC(=O)c2cc3cc(C(F)(F)P(=O)(O)O)ccc3s2)C1 (some centres unmarked) [Compound 178] showed Ki equal to 100 to 1000 nM

Measured Ki for this entry CC(C)(C)[C@H](NC(=O)c1cc2cc(C(F)(F)P(=O)(O)O)ccc2s1)C(=O)N1CCC[C@H]1C(=O)N1CCOC(c2cc(F)cc(F)c2)C1 (some centres unmarked) [Compound 265] on STAT6 protein (Homo sapiens, UniProt P42226): 100 to 1000 nM

For the compound CC(C)(C)[C@H](NC(=O)c1cc2cc(C(F)(F)P(=O)(O)O)ccc2s1)C(=O)N1Cc2ccccc2C[C@H]1C(=O)N1CCOC(c2ccc(Cl)c(Cl)c2)C1 (some centres unmarked) [Compound 240] , the measured Ki on STAT6 protein (Homo sapiens, UniProt P42226) was 100 to 1000 nM
